measurement.target: T1, human TNFR1 (recombinant, R&D Systems cat no. 636-R1/CF, biotinylated) (human, UniProt P19438 30-211, limits assumed, biotinylated with EZ-Link NHS-LC-LC-biotin)
T1 construct: it is not tied to the BIAcore reagent; also called p55; hTNFR1
T1 sequence (looked up): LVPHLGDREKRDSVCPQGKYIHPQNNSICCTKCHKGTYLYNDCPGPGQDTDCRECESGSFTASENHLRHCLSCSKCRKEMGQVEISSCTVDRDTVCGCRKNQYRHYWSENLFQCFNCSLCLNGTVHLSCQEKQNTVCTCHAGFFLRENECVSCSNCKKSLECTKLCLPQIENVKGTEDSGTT
method.notes: BIAcore T100, biotinylated human TNFR1 on chip
measurement.type: kon (M⁻¹ s⁻¹)
Numbers only here, please. The scale is M⁻¹ s⁻¹.

Answered cases to consult:
{"columns": ["binder", "kon / M⁻¹ s⁻¹"],
 "data": [
  ["DMS0124 (bispecific antibody, anti-TNFR1 dAb / AlbudAb in-line fusion) EVQLLESGGGLVQPGGSLRLSCAASGFTFVKYSMGWVRQAPGKGLEWVSQISNTADRTYYAHSVKGRFTISRDNSKNTLYLQMNSLRAEDTAVYYCAIYTGRWVPFEYWGQGTLVTVSSASGGGGSGGGGSGGGGSDIQMTQSPSSLSASVGDRVTITCRASQWIGSQLSWYQQKPGKAPKLLIMWRSSLQSGVPSRFSGSGSGTDFTLTISSLQPEDFATYYCAQGLMKPMTFGQGTKVEIKR", 450000],
  ["DMS0121 (bispecific antibody, anti-TNFR1 dAb / AlbudAb in-line fusion) EVQLLESGGGLVQPGGSLRLSCAASGFTFVKYSMGWVRQAPGKGLEWVSQISNTADRTYYAHSVKGRFTISRDNSKNTLYLQMNSLRAEDTAVYYCAIYTGRWVPFEYWGQGTLVTVSSASGGGGSGGGGSGGGGSDIQMTQSPSSLSASVGDRVTITCRASRPIGTTLSWYQQKPGKAPKLLILWNSRLQSGVPSRFSGSGSGTDFTLTISSLQPEDFATYYCAQAGTHPTTFGQGTKVEIKR", 300000],
  ["DMS0111 (bispecific antibody, anti-TNFR1 dAb / AlbudAb in-line fusion) EVQLLESGGGLVQPGGSLRLSCAASGFTFVKYSMGWVRQAPGKGLEWVSQISNTADRTYYAHSVKGRFTISRDNSKNTLYLQMNSLRAEDTAVYYCAIYTGRWVPFEYWGQGTLVTVSSASTDIQMTQSPSSLSASVGDRVTITCRASRPIGTTLSWYQQKPGKAPKLLILWNSRLQSGVPSRFSGSGSGTDFTLTISSLQPEDFATYYCAQAGTHPTTFGQGTKVEIKR", 370000],
  ["DOM1h-574-72 (other, VH dAb; expressed in E. coli, purified on Protein A) VH: EVQLLESGGGLVQPGGSLRLSCAASGFTFVKYSMGWVRQAPGKGLEWVSQISNTADRTYYAHSVKGRFTISRDNSKNTLYLQMNSLRAEDTAVYYCAIYTGRWVPFEYWGQGTLVTVSS", 200000]
]}

Proceeding to the next binder to report its kon.
Query :: Endpoint output: kon of DMS0115 (bispecific antibody, anti-TNFR1 dAb / AlbudAb in-line fusion) EVQLLESGGGLVQPGGSLRLSCAASGFTFVKYSMGWVRQAPGKGLEWVSQISNTADRTYYAHSVKGRFTISRDNSKNTLYLQMNSLRAEDTAVYYCAIYTGRWVPFEYWGQGTLVTVSSASTSGPSDIQMTQSPSSLSASVGDRVTITCRASRPIGTTLSWYQQKPGKAPKLLILWNSRLQSGVPSRFSGSGSGTDFTLTISSLQPEDFATYYCAQAGTHPTTFGQGTKVEIKR . Value?
Result :: 360000

The reported numbers originate from patent US20120107330A1.
